Origin of values: ChEMBL document CHEMBL3621164

# Assay comment: Half life in rhesus monkey at 2 mg/kg administered through gavage
# Assay type: ADME, organism-based, Macaca mulatta
# Conditions used: in vivo, po

- Smiles entry: "Cc1nnc2n1-c1ccc(-c3cncc([C@](C)(O)C(F)(F)F)c3)cc1CC2"
  Quantity unit: "h"
  half-life: 7.8

---

# Target entity: Steroid 17-alpha-hydroxylase/17,20 lyase (Homo sapiens)
# Sequence (P05093 whole entry): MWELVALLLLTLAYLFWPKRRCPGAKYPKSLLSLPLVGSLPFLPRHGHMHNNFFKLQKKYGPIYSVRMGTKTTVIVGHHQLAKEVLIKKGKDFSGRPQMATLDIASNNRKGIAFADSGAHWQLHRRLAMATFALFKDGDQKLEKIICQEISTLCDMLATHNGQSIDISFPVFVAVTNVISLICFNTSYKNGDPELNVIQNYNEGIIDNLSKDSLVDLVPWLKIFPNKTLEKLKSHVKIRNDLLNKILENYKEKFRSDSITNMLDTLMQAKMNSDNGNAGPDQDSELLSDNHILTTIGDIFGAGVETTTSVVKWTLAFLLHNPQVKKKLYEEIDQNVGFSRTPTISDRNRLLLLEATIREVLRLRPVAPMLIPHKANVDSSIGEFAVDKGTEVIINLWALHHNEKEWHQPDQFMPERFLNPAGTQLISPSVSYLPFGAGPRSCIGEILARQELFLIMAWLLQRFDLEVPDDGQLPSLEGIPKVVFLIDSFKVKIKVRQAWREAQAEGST
# Assay comment: Inhibition of human CYP17 expressed in COS7 cells assessed as DHEA level after 3 hrs by EIA assay in presence of 360 nM 17-hydroxypregnenolone
Measured parameter: IC50

- Smiles entry: "COC(C)(C)c1cncc(-c2ccc3c(c2)CCc2nnc(C)n2-3)c1"
  Measured parameter: "IC50"
  Result: "> 10 µM"
- Smiles entry: "COC(=O)c1cncc(-c2ccc3c(c2)CCc2nnc(C)n2-3)c1"
  Measured parameter: "IC50"
  Result: "> 10 µM"
- Smiles entry: "Cc1nnc2n1-c1ccc(-c3cncc([C@](C)(O)C(F)(F)F)c3)cc1CC2"
  Measured parameter: "IC50"
  Result: "> 10 µM"
- Smiles entry: "c1ccc(-c2nnc3n2-c2ccc(-c4cccnc4)cc2CC3)cc1"
  Measured parameter: "IC50"
  Result: "0.084 µM"

---

# Assay comment: Plasma clearance in rhesus monkey at 2 mg/kg administered through gavage by LC-MS/MS method
# Format: ADME, organism-based, Macaca mulatta
# Conditions used: po

- Smiles entry: "Cc1nnc2n1-c1ccc(-c3cncc([C@](C)(O)C(F)(F)F)c3)cc1CC2"
  CL/F, mL/min/kg: 3

---

# Target entity: Cytochrome P450 11B2, mitochondrial (Homo sapiens)
# Sequence (P19099 whole entry): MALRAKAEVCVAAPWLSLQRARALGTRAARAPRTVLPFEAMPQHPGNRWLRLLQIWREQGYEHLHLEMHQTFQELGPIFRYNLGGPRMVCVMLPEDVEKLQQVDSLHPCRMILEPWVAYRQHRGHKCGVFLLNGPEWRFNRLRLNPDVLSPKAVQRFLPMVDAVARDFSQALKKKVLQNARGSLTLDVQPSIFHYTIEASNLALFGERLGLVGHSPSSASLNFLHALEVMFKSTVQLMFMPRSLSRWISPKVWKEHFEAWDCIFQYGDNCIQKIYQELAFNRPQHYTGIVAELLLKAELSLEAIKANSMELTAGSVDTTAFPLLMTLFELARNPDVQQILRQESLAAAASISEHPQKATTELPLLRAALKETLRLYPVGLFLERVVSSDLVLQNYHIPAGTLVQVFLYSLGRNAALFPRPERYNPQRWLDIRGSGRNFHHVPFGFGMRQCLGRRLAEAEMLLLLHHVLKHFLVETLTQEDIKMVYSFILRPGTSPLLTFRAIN
# Assay comment: Inhibition of human CYP11B2 expressed in V79 cells assessed as aldosterone level after 3 hrs by HTRF assay in presence of 125 nM 11-deoxycorticosterone
pIC50: −log10 of the molar value.

- Smiles entry: "Cc1nnc2n1-c1ccc(-c3cncc(C(=O)N(C)C)c3)cc1CC2"
  Inequality sign: "<"
  pIC50: 5.08
- Smiles entry: "Cc1nnc2n1-c1ccc(-c3cncc(F)c3)cc1CC2"
  Inequality sign: "="
  pIC50: 6.25
- Smiles entry: "C[C@](O)(c1cncc(-c2ccc3c(c2)CCc2nnc(C(F)(F)F)n2-3)c1)C(F)(F)F"
  Inequality sign: "="
  pIC50: 6.34
- Smiles entry: "Cc1nnc2n1-c1ccc(-c3cncc([C@@](C)(O)C(F)(F)F)c3)cc1CC2"
  Inequality sign: "="
  pIC50: 6.96
- Smiles entry: "FC(F)(F)c1nnc2n1-c1ccc(-c3cccnc3)cc1CC2"
  Inequality sign: "="
  pIC50: 6.30
- Smiles entry: "Cc1nnc2n1-c1ccc(-c3cncc(C(F)(F)F)c3)cc1CC2"
  Inequality sign: "="
  pIC50: 6.31
- Smiles entry: "Cc1nnc2n1-c1ccc(-c3cncc([C@](C)(O)C(F)(F)F)c3)cc1CC2"
  Inequality sign: "="
  pIC50: 7.19
- Smiles entry: "Cc1nnc2n1-c1ccc(-c3cncc4ccccc34)cc1CC2"
  Inequality sign: "="
  pIC50: 8.30
- Smiles entry: "c1ccc(-c2nnc3n2-c2ccc(-c4cccnc4)cc2CC3)cc1"
  Inequality sign: "="
  pIC50: 6.99
- Smiles entry: "COC(=O)C(C)(C)c1cncc(-c2ccc3c(c2)CCc2nnc(C)n2-3)c1"
  Inequality sign: "="
  pIC50: 7.72
- Smiles entry: "Cc1nnc2n1-c1ccc(-c3cccnc3)cc1CC2"
  Inequality sign: "="
  pIC50: 6.37

---

# Assay comment: Intrinsic clearance in Sprague-Dawley rat liver microsomes by LC/MS method
# Type: ADME
# Conditions used: read-out: CLH
Measured CLint scaled by item

- Smiles entry: "Cc1nnc2n1-c1ccc(-c3cncc(C(C)(C)O)c3)cc1CC2"
  CLint scaled: "< 20 mL/min/kg"
- Smiles entry: "Cc1nnc2n1-c1ccc(-c3cncc4ccccc34)cc1CC2"
  CLint scaled: "33 mL/min/kg"
- Smiles entry: "COC(C)(C)c1cncc(-c2ccc3c(c2)CCc2nnc(C)n2-3)c1"
  CLint scaled: "107 mL/min/kg"
- Smiles entry: "Cc1nnc2n1-c1ccc(-c3cncc([C@](C)(O)C(F)(F)F)c3)cc1CC2"
  CLint scaled: "< 20 mL/min/kg"
- Smiles entry: "CC(C)(O)c1cncc(-c2ccc3c(c2)CCc2nnc(C(F)(F)F)n2-3)c1"
  CLint scaled: "< 20 mL/min/kg"
- Smiles entry: "Cc1nnc2n1-c1ccc(-c3cccnc3)cc1CC2"
  CLint scaled: "55 mL/min/kg"

---

Measured log10 of half-life by item
# Assay comment: Half life in Sprague-Dawley rat at 2 mg/kg, po administered through gavage by LC/MS/MS method
# Format: ADME, organism-based
# Conditions used: in vivo
Measured parameter: log10 of half-life (log10 of the value in min)

- Smiles entry: "Cc1nnc2n1-c1ccc(-c3cncc4ccccc34)cc1CC2"
  Readout number: 1.38
- Smiles entry: "Cc1nnc2n1-c1ccc(-c3cccnc3)cc1CC2"
  Readout number: 1.08
- Smiles entry: "Cc1nnc2n1-c1ccc(-c3cncc([C@](C)(O)C(F)(F)F)c3)cc1CC2"
  Readout number: 1.86
- Smiles entry: "COC(C)(C)c1cncc(-c2ccc3c(c2)CCc2nnc(C)n2-3)c1"
  Readout number: 1.26
- Smiles entry: "CC(C)(O)c1cncc(-c2ccc3c(c2)CCc2nnc(C(F)(F)F)n2-3)c1"
  Readout number: 2.24
- Smiles entry: "Cc1nnc2n1-c1ccc(-c3cncc(C(C)(C)O)c3)cc1CC2"
  Readout number: 1.95

---

pIC50: −log10 of the molar value.
Recorded below: pIC50, system Aromatase (Homo sapiens, UniProt P11511).
Measured parameter: pIC50

- Smiles entry: "COC(=O)c1cncc(-c2ccc3c(c2)CCc2nnc(C)n2-3)c1"
  Target entity: "Aromatase (Homo sapiens, UniProt P11511)"
  Result: "< 5.00"
- Smiles entry: "Cc1nnc2n1-c1ccc(-c3cncc([C@](C)(O)C(F)(F)F)c3)cc1CC2"
  Target entity: "Aromatase (Homo sapiens, UniProt P11511)"
  Result: "< 4.52"

---

# Target entity: Cytochrome P450 3A4 (Homo sapiens)
# Sequence (P08684 whole entry): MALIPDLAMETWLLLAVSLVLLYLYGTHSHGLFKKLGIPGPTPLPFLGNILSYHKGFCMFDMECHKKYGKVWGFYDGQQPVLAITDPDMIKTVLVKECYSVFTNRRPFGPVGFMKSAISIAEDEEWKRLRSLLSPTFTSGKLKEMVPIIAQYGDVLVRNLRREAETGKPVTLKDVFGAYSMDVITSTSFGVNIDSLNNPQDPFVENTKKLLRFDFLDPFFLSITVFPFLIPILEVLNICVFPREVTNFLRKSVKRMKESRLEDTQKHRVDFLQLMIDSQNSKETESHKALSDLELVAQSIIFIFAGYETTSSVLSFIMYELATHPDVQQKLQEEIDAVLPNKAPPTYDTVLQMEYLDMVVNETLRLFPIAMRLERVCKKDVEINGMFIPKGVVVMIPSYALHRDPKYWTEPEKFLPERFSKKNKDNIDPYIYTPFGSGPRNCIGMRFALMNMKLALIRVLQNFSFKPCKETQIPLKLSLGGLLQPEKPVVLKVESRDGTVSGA

- Smiles entry: "Cc1nnc2n1-c1ccc(-c3cncc([C@](C)(O)C(F)(F)F)c3)cc1CC2"
  IC50: "> 50 µM"
- Smiles entry: "COC(C)(C)c1cncc(-c2ccc3c(c2)CCc2nnc(C)n2-3)c1"
  IC50: "> 50 µM"

---

# Species on record: Homo sapiens
# Assay comment: Selectivity index, ratio IC50 for human CYP11B1 to IC50 for human CYP11B2

- Smiles entry: "C[C@@](O)(c1cncc(-c2ccc3c(c2)CCc2nnc(C(F)(F)F)n2-3)c1)C(F)(F)F"
  Ratio IC50: "> 18"
- Smiles entry: "Cc1nnc2n1-c1ccc(-c3cncc(C(C)(C)O)c3)cc1CC2"
  Ratio IC50: "> 29"
- Smiles entry: "Cc1nnc2n1-c1ccc(-c3cccnc3)cc1CC2"
  Ratio IC50: "> 24"
- Smiles entry: "c1ccc(-c2nnc3n2-c2ccc(-c4cccnc4)cc2CC3)cc1"
  Ratio IC50: 13
- Smiles entry: "Cc1nnc2n1-c1ccc(-c3cncc([C@](C)(O)C(F)(F)F)c3)cc1CC2"
  Ratio IC50: 69
- Smiles entry: "FC(F)(F)c1nnc2n1-c1ccc(-c3cccnc3)cc1CC2"
  Ratio IC50: "> 16"
- Smiles entry: "c1cncc(-c2ccc3c(c2)CCc2nncn2-3)c1"
  Ratio IC50: "> 33"
- Smiles entry: "CC(C)(O)c1cncc(-c2ccc3c(c2)CCc2nnc(C(F)(F)F)n2-3)c1"
  Ratio IC50: 3
- Smiles entry: "c1cncc(-c2ccc3c(c2)CCc2nnc(C4CC4)n2-3)c1"
  Ratio IC50: "> 21"
- Smiles entry: "c1cncc(-c2ccc3c(c2)CCc2nnc(C4CCCCC4)n2-3)c1"
  Ratio IC50: "> 3"
- Smiles entry: "C[C@](O)(c1cncc(-c2ccc3c(c2)CCc2nnc(C(F)(F)F)n2-3)c1)C(F)(F)F"
  Ratio IC50: 2
